- System: SNB-75 CNS
- protocol-summary: NCI tumour cell line growth inhibition, 48 h
measurement-label: log10 TGI (log10 of the value in µM)

{"columns": ["compound", "log10 TGI"],
 "data": [
  ["CCOC(=O)c1c(CN2CCCC2)n(-c2ccccc2)c2cc(Br)c(O)cc12", 1.56],
  ["O=C(/C=C/c1ccc([N+](=O)[O-])cc1)c1ccc(NCc2nc3ccccc3[nH]2)cc1", 1.50],
  ["O=c1c(-c2ccccc2)c2oc(c1-c1ccccc1)CSCc1cccc(c1)CSC2", 1.84],
  ["Cc1ccc(Oc2ccc(C)cc2N)cc1", 1.87],
  ["Nc1cc(NN=C(c2ccc(O)cc2)c2ccc(O)cc2)c([N+](=O)[O-])cc1[N+](=O)[O-]", 0.59],
  ["Cc1cc(-c2nc3ccc(F)cc3s2)ccc1NC(=O)[C@H](C)N", 1.40],
  ["O=C(/C=C/c1ccc(O)cc1)c1ccc(O)cc1", 1.71],
  ["C/C(=N/Nc1ccc([N+](=O)[O-])cc1[N+](=O)[O-])C(CC(C(=O)NCc1ccccc1)/C(C)=N\\Nc1ccc([N+](=O)[O-])cc1[N+](=O)[O-])C(=O)NCc1ccccc1 (stereo unspecified)", 1.09],
  ["O=C(Nc1ccc(Oc2ccc(Nc3nc4ccccc4s3)cc2)cc1)Nc1ccc(Cl)c(C(F)(F)F)c1", 0.72],
  ["CN(C)CCn1c2c3ccccc3ccc2c2oc(=O)c3ccccc3c21", 1.00],
  ["Cc1nnc(NC(=O)c2nc(S(=O)(=O)Cc3ccc(F)cc3)ncc2Cl)s1", 1.25]
]}
